Experiment: pKa of doravirine
Format: physicochemical
PROPERTY: pKa
Give bare numbers.

Fill in the blank: the reported pKa of Cn1c(Cn2ccc(C(F)(F)F)c(Oc3cc(Cl)cc(C#N)c3)c2=O)n[nH]c1=O is ____.
9.47
